Values from patent US9822139B2

# log10 of IC50 annotations
# System: cervical epithelioid carcinoma (HeLa)
# MEASUREMENT_DESCRIPTION: MTT cytotoxicity assay, HeLa
# Assay type: cell-based, human
# TEST_PARAMETERS: 72 h
Units before log transform: µM; reported quantity: IC50; transform: log10.

COMPOUND	log10 of IC50
CCCC[n+]1ccn(CCCn2cc[n+](CCCC)[c]2[Pt-2]23[c]4ccccc4-c4cccc([n+]42)-c2cccc[n+]23)[c]1[Pt-2]12[c]3ccccc3-c3cccc([n+]31)-c1cccc[n+]12.F[P-](F)(F)(F)(F)F.F[P-](F)(F)(F)(F)F (centres unmarked)	0.59
CCCn1cc[n+](CCC)[c]1[Pt-2]12[c]3ccccc3-c3cccc([n+]31)-c1cc3ccccc3c[n+]12.F[P-](F)(F)(F)(F)F (centres unmarked)	-0.26
CCCCn1cc[n+](CCO)[c]1[Pt-2]12[c]3ccccc3-c3cccc([n+]31)-c1cc3ccccc3c[n+]12.F[P-](F)(F)(F)(F)F (centres unmarked)	-0.35
CCCC[n+]1ccn(Cn2cc[n+](CCCC)[c]2[Pt-2]23[c]4ccccc4-c4cccc([n+]42)-c2cccc[n+]23)[c]1[Pt-2]12[c]3ccccc3-c3cccc([n+]31)-c1cccc[n+]12.F[P-](F)(F)(F)(F)F.F[P-](F)(F)(F)(F)F (centres unmarked)	0.90

For the compound `CCCCn1cc[n+](C[n+]2ccn(CCCC)[c]2[Au-]23[c]4cc5ccccc5cc4-c4cc(-c5ccc(OC)cc5)cc([n+]42)-c2cc4ccccc4c[c]23)[c]1[Au-]12[c]3cc4ccccc4cc3-c3cc(-c4ccc(OC)cc4)cc([n+]31)-c1cc3ccccc3c[c]12.O=S(=O)([O-])C(F)(F)F.O=S(=O)([O-])C(F)(F)F` , give its measured log10 of IC50 value. 0.86
